# measuredOn: Recombinant human Factor B catalytic domain (Homo sapiens (Human), UniProt P00751)
# Sequence (P00751 470-764): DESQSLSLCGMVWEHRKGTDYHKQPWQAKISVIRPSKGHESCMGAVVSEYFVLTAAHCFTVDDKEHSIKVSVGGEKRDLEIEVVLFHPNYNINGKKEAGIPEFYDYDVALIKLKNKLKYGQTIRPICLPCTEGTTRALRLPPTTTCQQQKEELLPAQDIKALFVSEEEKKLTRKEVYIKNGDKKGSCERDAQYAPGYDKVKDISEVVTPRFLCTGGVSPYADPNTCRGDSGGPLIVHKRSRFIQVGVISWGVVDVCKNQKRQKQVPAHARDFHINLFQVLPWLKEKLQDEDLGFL
# testDescription: Factor B binding assay by TR-FRET
# conditions: read-out: Factor B TR-FRET IC50; 10 nM his-tagged Factor B catalytic domain, 100 nM tracer, 1 h
pIC50: −log10 of the molar value.
Binary call on pIC50: TRUE from 7 upward, FALSE beneath that.

> print(dat)
                                   compound  group
1  Cc1cc(C)c2[nH]ccc2c1CN1C[C@@H]2CCCCC2C1c1ccc(C(=O)O)cc1 (stereo in doubt)  FALSE
2  CCOc1cc(C)c2[nH]ccc2c1CN1CCC2(C[C@H]1c1ccc(C(=O)O)cc1)CC(F)(F)C2   TRUE
3  COc1cc(C)c2[nH]ccc2c1CN1CCCCC1c1ccc(C(=O)O)c(C(F)F)c1 (centres unmarked)  FALSE
4  Cc1cc(C)c2[nH]ccc2c1CN1CC2CC2C1c1ccc(C(=O)O)cc1 (centres unmarked)  FALSE
5  Cc1cc(C)c2[nH]ccc2c1CN1CCC(CCO)=CC1c1ccc(C(=O)O)cc1 (centres unmarked)  FALSE
6  C=C(F)c1cc(C)c2[nH]ccc2c1CN1CCC2(C[C@H]1c1ccc(C(=O)O)cc1)CC(F)(F)C2   TRUE

Please check the record COc1cc(C)c2[nH]ccc2c1CN1CCC2(C[C@H]1c1ccc(C(=O)O)c(C)c1)CC(F)(F)C2 and state if its pIC50 is at or above 7.
TRUE

---

# measuredOn: Recombinant human Factor B catalytic domain (Homo sapiens (Human), UniProt P00751)
# testDescription: Factor B binding assay by TR-FRET
# conditions: Factor B TR-FRET IC50 (nM), 10 nM his-tagged Factor B catalytic domain, 100 nM tracer, 1 h
For each record, check the reported IC50: if it is below 80 nM write yes (1), else write no (0).

> print(dat)
                                    molecule    group
 1  COc1cc(C)c2[nH]ccc2c1CN1C[C@@H]2CC(C)(C)C[C@@H]2C1c1ccc(C(=O)O)cc1 (single isomer, unassigned) [34 (Isomer 1)]  yes (1)
 2  COc1cc(C)c2[nH]ccc2c1CN1CC2CC3(CC3)CC2C1c1ccc(C(=O)O)cc1 (single isomer, unassigned) [29 (Isomer 1)]  yes (1)
 3  COc1cc(C)c2[nH]ccc2c1CN1CCC2(CCO2)CC1c1ccc(C(=O)O)cc1 (single isomer, unassigned) [38 (Isomer 4)]  yes (1)
 4  COc1cc(C)c2[nH]ccc2c1CN1CCCCC1c1ccc(C(=O)O)cc1C(F)F (single isomer, unassigned) [26 (Isomer 1)]  yes (1)
 5  Cc1cc(C)c2[nH]ccc2c1CN1CCC(CF)CC1c1ccc(C(=O)O)cc1 (single isomer, unassigned) [7 (Isomer 1)]   no (0)
 6  COc1cc(C)c2[nH]ccc2c1CN1CC2CC(C(F)F)CC2C1c1ccc(C(=O)O)cc1 (single isomer, unassigned) [39 (Isomer 2)]  yes (1)
 7  COc1cc(C)c2[nH]ccc2c1CN1C[C@@H]2CC(C)(C)C[C@@H]2C1c1ccc(C(=O)O)cc1 (single isomer, unassigned) [34 (Isomer 2)]   no (0)
 8  COc1cc(C)c2[nH]ccc2c1C(C)N1CC2CCCC2C1c1ccc(C(=O)O)cc1 (single isomer, unassigned) [37 (Isomer 3)]   no (0)
 9  Cc1cc(C)c2[nH]ccc2c1CN1CCC(CF)CC1c1ccc(C(=O)O)cc1 (single isomer, unassigned) [7 (Isomer 2)]   no (0)
10  COc1cc(C)c2[nH]ccc2c1C(C)N1CC2CCCC2C1c1ccc(C(=O)O)cc1 (single isomer, unassigned) [37 (Isomer 4)]   no (0)

Please indicate whether the reported IC50 of COc1cc(C)c2[nH]ccc2c1CN1CCC2(CCC1c1ccc(C(=O)O)cc1)CC2(F)F (single isomer, unassigned) [24 (Isomer 2)] is strictly below 80 nM.
no (0)

Please indicate whether the reported IC50 of COc1cc(C)c2[nH]ccc2c1C(C)N1CC2CCCC2C1c1ccc(C(=O)O)cc1 (single isomer, unassigned) [37 (Isomer 1)] is strictly below 80 nM.
no (0)

Please indicate whether the reported IC50 of Cc1cc(C2CC2)c(CN2CC3CCCC3C2c2ccc(C(=O)O)cc2)c2cc[nH]c12 (single isomer, unassigned) [32 (Isomer 1)] is strictly below 80 nM.
yes (1)

Please indicate whether the reported IC50 of COc1cc(C)c2[nH]ccc2c1CN1CCC2(CC1c1ccc(C(=O)O)cc1)CC(C)(F)C2 (single isomer, unassigned) [42 (Isomer 1)] is strictly below 80 nM.
yes (1)

Please indicate whether the reported IC50 of COc1cc(C)c2[nH]ccc2c1CN1CCC2(CCOC2)CC1c1ccc(C(=O)O)cc1 (single isomer, unassigned) [36 (Isomer 3)] is strictly below 80 nM.
no (0)
